testSystem: IDO1 (Homo sapiens)
Construct: HeLa cells were treated with a test compound in the presence of IFNγ, which induces IDO1 expression; host or cells: H1-HeLa cells, IDO1 induced with IFNγ
Sequence (P14902 whole entry): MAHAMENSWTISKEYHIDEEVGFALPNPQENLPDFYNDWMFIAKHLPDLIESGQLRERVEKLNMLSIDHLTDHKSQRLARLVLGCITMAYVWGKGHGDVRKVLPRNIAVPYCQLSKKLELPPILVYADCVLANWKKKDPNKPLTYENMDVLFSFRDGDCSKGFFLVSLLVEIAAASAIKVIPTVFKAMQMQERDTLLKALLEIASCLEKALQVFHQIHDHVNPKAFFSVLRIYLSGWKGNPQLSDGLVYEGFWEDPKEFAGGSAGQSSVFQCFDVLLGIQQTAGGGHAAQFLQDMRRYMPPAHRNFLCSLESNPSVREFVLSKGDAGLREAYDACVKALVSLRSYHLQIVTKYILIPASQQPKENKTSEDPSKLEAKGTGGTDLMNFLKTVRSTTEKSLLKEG
procedureDetails: Cell-based (HeLa) assay for measurement of IDO1 inhibition (kynurenine levels in supernatant after IFNγ induction)
studyConditions: HeLa cells, IFNγ-induced IDO1, kynurenine in supernatant after 48 hour incubation; geometric mean of a minimum of four determinations
measuredParameter: EC50 (nM)

- molecule: "NC(=O)CCNc1nc2c(F)c(F)cc(/C(=N/O)Nc3ccc(F)c(Cl)c3)c2[nH]1"
  measuredParameter: "EC50"
  operatorSymbol: ">"
  reportedMeasurement: 10000
- molecule: "CN1CCCC(Nc2nc3nccc(/C(=N/O)Nc4ccc(F)c(Cl)c4)c3[nH]2)C1 (centres unmarked)"
  measuredParameter: "EC50"
  operatorSymbol: "="
  reportedMeasurement: 1070
- molecule: "O/N=C(\\Nc1ccc(F)c(Cl)c1)c1ccnc2nc(NCCN3CC[C@H](O)C3)[nH]c12"
  measuredParameter: "EC50"
  operatorSymbol: "="
  reportedMeasurement: 5280
- molecule: "NS(=O)(=O)CCNc1nc2c(F)c(F)cc(/C(=N/O)Nc3ccc(F)c(Cl)c3)c2[nH]1"
  measuredParameter: "EC50"
  operatorSymbol: "="
  reportedMeasurement: 9560
- molecule: "O/N=C(\\Nc1ccc(F)c(Cl)c1)c1ccnc2nc(NCCN3CCCCC3)[nH]c12"
  measuredParameter: "EC50"
  operatorSymbol: "="
  reportedMeasurement: 1520
- molecule: "CNCCc1nc2nccc(/C(=N/O)Nc3ccc(F)c(Cl)c3)c2[nH]1"
  measuredParameter: "EC50"
  operatorSymbol: "="
  reportedMeasurement: 1510
- molecule: "CS(=O)(=O)CCNc1nc2c(F)ccc(/C(=N/O)Nc3ccc(F)c(Cl)c3)c2[nH]1"
  measuredParameter: "EC50"
  operatorSymbol: "="
  reportedMeasurement: 1830
- molecule: "NCCc1nc2c(F)c(F)cc(/C(=N/O)Nc3ccc(F)c(Cl)c3)c2[nH]1"
  measuredParameter: "EC50"
  operatorSymbol: ">"
  reportedMeasurement: 10000
